# System: 7G8
# Procedure summary: qHTS profiling for inhibitors of Plasmodium falciparum proliferation (AID 504749); further: nearly all actives have a fitted effect of over 60% in size
# Recorded conditions: P. falciparum in erythrocytes, SYBR Green DNA, 72 h; series mostly up to 28.7 µM
Records with an inconclusive call do not appear. The source made the active and inactive calls. The call rests on the fitted dose curve; in most records, active means well fitted inhibition curve with a large enough effect; inconclusive means small, poorly fitted or top-dose-only effect; inactive means flat fitted curve, though single readings scatter.
Permitted responses: 1 (active), 0 (inactive)

Reference set (6 entries):
Each compound tested received a call. Report the one for CC(C)(C#N)c1cc(Cn2cncn2)cc(C(C)(C)C#N)c1 .
0

Each compound tested received a call. Report the one for CC(C)OC(=O)C(C(=O)OC(C)C)=C1SC=CS1 .
0

Each compound tested received a call. Report the one for CCOC(=O)c1ccc(C#Cc2ccc3c(c2)C(C)(C)CCS3)nc1 .
1

Each compound tested received a call. Report the one for CC1=CC(=O)c2ccccc2C1=O .
1

Each compound tested received a call. Report the one for NCCCC(O)(P(=O)(O)O)P(=O)(O)O .
0

Each compound tested received a call. Report the one for CCC(C)(C)c1ccc(CC(C)CN2C[C@@H](C)O[C@@H](C)C2)cc1 (some centres undefined) .
1

With those in mind, consider the next compound.
Each compound tested received a call. Report the one for N[C@@H](C(=O)N[C@@H]1C(=O)N2C(C(=O)O)=C(Cl)CS[C@H]12)c1ccccc1 .
0

* * *

# Procedure summary: Quantitative High-Throughput drug screen in 47 multiple myeloma cell lines against the NCATS MIPE library collection: JIM1_ECACC cell viability assay (AID 1918964)
# Recorded conditions: JIM1 myeloma viability, CellTiter-Glo ATP luminescence, 48 h; series mostly up to 45.8 µM
Results filed as inconclusive are left out. Active and inactive are the calls of the source. Calls follow the shape of the dose curve; as a rule, active = well fitted cell-killing curve with a large enough effect; inconclusive = small, poorly fitted or top-dose-only effect, or effect the other way; inactive = no such curve, though single readings can be large or run the other way.
Permitted responses: Y = active, N = inactive

Reference set (8 entries):
Each compound tested received a call. Report the one for CC1=NN(c2ccccc2)C(=O)C1 .
N

Each compound tested received a call. Report the one for COc1nc(N)nc2c1ncn2[C@@H]1O[C@H](CO)[C@@H](O)[C@@H]1O .
N

Each compound tested received a call. Report the one for Cn1nnc2c(C(N)=O)ncn2c1=O .
N

Each compound tested received a call. Report the one for C[C@@H]1CN(c2c(F)c(N)c3c(=O)c(C(=O)O)cn(C4CC4)c3c2F)C[C@H](C)N1 .
N

Each compound tested received a call. Report the one for O=c1cc(O)c(Cl)c[nH]1 .
Y

Each compound tested received a call. Report the one for CCCc1nc(C)c2c(=O)[nH]c(-c3cc(S(=O)(=O)N4CCN(CC)CC4)ccc3OCC)nn12 .
Y

Each compound tested received a call. Report the one for CC(C)C[C@H](NC(=O)[C@H](CCc1ccccc1)NC(=O)CN1CCOCC1)C(=O)N[C@@H](Cc1ccccc1)C(=O)N[C@@H](CC(C)C)C(=O)[C@@]1(C)CO1 .
Y

Each compound tested received a call. Report the one for Cn1c(=O)c2c(ncn2CC(O)CO)n(C)c1=O (stereo not drawn) .
N

Further cases:
Each compound tested received a call. Report the one for COc1ccccc1OCC(O)COC(N)=O (stereo not drawn) .
N

Each compound tested received a call. Report the one for COc1cc([C@@H]2c3cc4c(cc3[C@H](O)[C@H]3COC(=O)[C@H]23)OCO4)cc(OC)c1OC .
N

Each compound tested received a call. Report the one for CC(C)(C)NC(=O)[C@H]1CC[C@H]2[C@@H]3CC[C@H]4NC(=O)C=C[C@]4(C)[C@H]3CC[C@]12C .
N

Each compound tested received a call. Report the one for CCOC(=O)[C@H](CCc1ccccc1)N[C@H]1CS[C@H](c2cccs2)CN(CC(=O)O)C1=O .
Y

Each compound tested received a call. Report the one for CNNCc1ccc(C(=O)NC(C)C)cc1 .
N

Each compound tested received a call. Report the one for CCOC(=O)c1ccc(OC(=O)CCCCCN=C(N)N)cc1 .
N

Each compound tested received a call. Report the one for CC[C@H](NC(C)C)[C@H](O)c1ccc(O)c2[nH]c(=O)ccc12 .
N

Each compound tested received a call. Report the one for O=NN(CCCl)C(=O)NC1CCCCC1 .
N

* * *

# Procedure summary: Quantitative High-Throughput drug screen in 47 multiple myeloma cell lines against the NCATS MIPE library collection: H1112_PLB cell viability assay (AID 1918967; further: nearly all actives have a fitted effect of over 30% in size)
# Recorded conditions: H1112 myeloma cells viability, ATP luminescence, 48 h; series mostly up to 45.8 µM
Records with an inconclusive call do not appear. Activity calls are given as the source filed them. Calls come from the whole dose curve; as a rule, active = well fitted cell-killing curve with a large enough effect; inconclusive = small, poorly fitted or top-dose-only effect, or effect the other way; inactive = no such curve, though single readings can be large or run the other way.
Permitted responses: 1 for active, -1 for inactive

Reference set (10 entries):
Each compound tested received a call. Report the one for CC1=NN(c2ccccc2)C(=O)C1 .
-1

Each compound tested received a call. Report the one for C[C@]12C=CC(=O)C=C1CC[C@@H]1[C@@H]2C(=O)C[C@@]2(C)[C@H]1CC[C@]2(O)C(=O)CO .
-1

Each compound tested received a call. Report the one for NC1(c2ccc(-c3nc4ccn5c(=O)[nH]nc5c4cc3-c3ccccc3)cc2)CCC1 .
1

Each compound tested received a call. Report the one for CCOCC(O)COc1ccc(NC(=O)CC[S+](C)C)cc1 (stereo unspecified) .
-1

Each compound tested received a call. Report the one for Cn1c(=O)c2c(ncn2CC(O)CO)n(C)c1=O (stereo unspecified) .
-1

Each compound tested received a call. Report the one for CC(C(=O)O)c1ccc2c(c1)CC(=O)c1ccccc1S2 (stereo unspecified) .
-1

Each compound tested received a call. Report the one for COc1cnc(NS(=O)(=O)c2ccc(N)cc2)nc1 .
-1

Each compound tested received a call. Report the one for CCCCc1oc2ccc(NS(C)(=O)=O)cc2c1C(=O)c1ccc(OCCCN(CCCC)CCCC)cc1 .
1

Each compound tested received a call. Report the one for COc1ccc2c(c1)c(CC(=O)OCC(=O)O)c(C)n2C(=O)c1ccc(Cl)cc1 .
-1

Each compound tested received a call. Report the one for COc1c(N2CCNC(C)C2)c(F)cc2c(=O)c(C(=O)O)cn(C3CC3)c12 (stereo unspecified) .
-1

With those in mind, consider the next compound.
Each compound tested received a call. Report the one for COc1cc(NCc2ccc3nc(N)nc(N)c3c2C)cc(OC)c1OC .
1

* * *

// values below are reported max response
# Tested on: KB-3-1
# Procedure summary: Cytotoxic Profiling of Annotated Libraries Using Quantitative High-Throughput Screening (AID 1296008); further: on the % scale 0 is the no-effect control and ±100 the full control effect; nearly all actives have a fitted effect of over 60% in size
# Recorded conditions: Five cell lines viability, CellTiter-Glo ATP luminescence, 48-72 h; active compounds read low
Records with an inconclusive call do not appear.
Return type: number; implicit unit %.

Given COc1ccc(-c2ccc3cc(C(=O)O)ccc3c2)cc1C12CC3CC(CC(C3)C1)C2 , respond with its max response.
-1.55

Given COc1cnc(NS(=O)(=O)c2ccc(N)cc2)nc1 , respond with its max response.
12.3

Given COc1cc2c(Nc3ccc(Br)cc3F)ncnc2cc1OCC1CCN(C)CC1 , respond with its max response.
-19.6

Given CCOC(=O)[C@H](CCc1ccccc1)N[C@H]1CS[C@H](c2cccs2)CN(CC(=O)O)C1=O , respond with its max response.
4.95

Given CCOCC(O)COc1ccc(NC(=O)CC[S+](C)C)cc1 (centres undefined) , respond with its max response.
-5.04

Further cases:
Given Cn1c(=O)c2c(ncn2CC(O)CO)n(C)c1=O (centres undefined) , respond with its max response.
3.89

Given O=C(N[C@H](CO)[C@H](O)c1ccc([N+](=O)[O-])cc1)C(Cl)Cl , respond with its max response.
-16.7

Given CC1=CC(=O)c2ccccc2C1=O , respond with its max response.
1.53

Given Cc1ccc(S(=O)(=O)N[C@@H](Cc2ccccc2)C(=O)CCl)cc1 , respond with its max response.
6.1

Given COc1c(N2CCNC(C)C2)c(F)cc2c(=O)c(C(=O)O)cn(C3CC3)c12 (centres undefined) , respond with its max response.
0.558

Given Cc1cccc(N(C)C(=S)Oc2ccc3ccccc3c2)c1 , respond with its max response.
1.04

Given C#CCN[C@@H]1CCc2ccccc21 , respond with its max response.
-4.71

* * *

# Procedure summary: Cytometric Cell-Based qHTS for Inhibitors of the mTORC1 Signaling Pathway in MEF (Tsc2-/-, p53-/-) Cells (AID 2660);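 further: Tsc2 and p53 null MEFs carrying empty vector with compound for 24 h; percent of cells above a phospho-rpS6 to PI ratio cutoff in each well; plate controls were DMSO for no effect and rapamycin for full effect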
# Recorded conditions: mTORC1 pathway cytometry; series mostly up to 38.3 µM
Inconclusive results are not listed. Calls of active or inactive are those of the source. Calls follow the shape of the dose curve; as a rule, active = well fitted curve in the direction sought with a large enough effect; inconclusive = small, poorly fitted or top-dose-only effect, or another doubt; inactive = no such curve, though single readings can be large or run the other way.
Measured property: outcome

Example compounds with recorded outcome:
Given O=C(O)C1CCCN(CCC=C(c2ccccc2)c2ccccc2)C1 (stereo not drawn) , respond with its outcome.
inactive

Given Nc1nc(N)c2nc(CNc3ccc(C(=O)NC(CCC(=O)O)C(=O)O)cc3)cnc2n1 (stereo not drawn) , respond with its outcome.
inactive

Given CCCCS(=N)(=O)CCC(N)C(=O)O (stereo not drawn) , respond with its outcome.
inactive

Given CCN1CCCC1CNC(=O)c1cc(S(N)(=O)=O)ccc1OC (stereo not drawn) , respond with its outcome.
inactive

// below: outcome requested for another compound
Given COc1cc2ncnc(Nc3cccc(Cl)c3)c2cc1OC , respond with its outcome.
inactive
